Assay: NCI Yeast Anticancer Drug Screen. Data for the cln2 rad14 strain (AID 165);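 also: 0% = growth equal to vehicle treated cultures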
Conditions: S. cerevisiae cln2 rad14 strain, at 50.0 µM, hits give high values
The panel holds about 79,000 compounds, 15% with a hit somewhere; the sample as a whole holds those more often. Calls of active or inactive are those of the source. Rule as the data show it: active = growth inhibition above about 70%; inactive = the rest.
MEASURED_PARAMETER: growth inhibition

Working through the 8 compounds below one at a time, give growth inhibition for each.
1. O=C([O-])CC(=O)[O-].O=C([O-])CC(=O)[O-].[K+].[Pd+2]
2. Cn1c(=O)n(C2(C)C[Se]C2)c2ccccc21
3. BrCCCCCCBr
4. O=C(N/N=C/c1cc(Br)cc(Br)c1[O-])c1ccccc1O.O=C(N/N=C/c1cc(Br)cc(Br)c1[O-])c1ccccc1O.[Cl-].[Fe+3]
5. ClC(CN1CCCCC1)C(Cl)c1ccccc1 (stereo not given)
6. CN1CCOC12CCC1(C)C(CCC3C4CCC(O)C4(C)CCC31)C2 (stereo not given)
7. C[CH2][Sn]1([CH2]C)[O]C2C(OC)OC3COC(c4ccccc4)OC3C2[O]1 (stereo not given)
8. COC1CC(OC2OC(CO)C(O)C(O)C2O)/C(=C\C#N)C(O)C1OC (stereo not given)

1. 26.6% (inactive)
2. -15.4% (inactive)
3. -29.3% (inactive)
4. -30.1% (inactive)
5. 53% (inactive)
6. -6.75% (inactive)
7. -21.4% (inactive)
8. 9.25% (inactive)

Working through the 2 compounds below one at a time, give growth inhibition for each.
1. C/C1=N\NC(=O)c2ccccc2C(=O)N/N=C(\C)c2cccc1n2.O=[N+]([O-])[O-].[Zn+2]
2. O=S(=O)(F)c1cc(Cl)c(S)cc1Cl

1: 5.8% (inactive); 2: 16.1% (inactive)

---

Experiment: NCI Yeast Anticancer Drug Screen. Data for the sgs1 mgt1 strain (AID 161);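 also: 0% = growth of cultures given vehicle only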
Settings: S. cerevisiae sgs1 mgt1 strain, at 50.0 µM, hits give high values
The panel holds about 79,000 compounds, 15% with a hit somewhere; the sample as a whole holds those more often.
Note to self: values exactly at 20% are criterion met. So growth inhibition at or above 20% is criterion met, below is criterion not met.

# example entries with known answers
O=C(N/N=C(/CCN1CCCC1)CC(c1ccccc1)c1c(O)c2ccccc2oc1=O)c1ccncc1 (stereo not given) : criterion met
O=[As](O)(O)Cc1cccc(F)c1 : criterion not met
O=C1NC(=O)C(Br)C(=O)N1 (tested in a mixture with another compound) : criterion not met
CCOP(=O)(Oc1ccc([N+](=O)[O-])cc1)c1cccc(Br)c1 (stereo not given) : criterion met
COCC1OC(OC2C3=C(C(C)C)CCC3(C)/C=C3\C(CCC3(O)COC)C(C)C2O)C(O)C2OC3OC12OC3(C)C1CO1 (stereo not given) : criterion met
C[N+]1(CC2CC2)C2CC(OC(=O)C(CO)c3ccccc3)CC1C1OC12 (stereo not given) : criterion not met
COc1ccc(O)c(/C=C/[N+](=O)[O-])c1 : criterion met
CCCN1CCC2(CC1)COCc1ccccc12 : criterion met

Does "O=[As](O)(O)CCc1ccccc1" have a reported growth inhibition of at least 20%?
criterion not met

// repeat for "CN(C)CCNC(=O)c1c([N+](=O)[O-])ccc(N(CCCl)CCCl)c1[N+](=O)[O-]" and report
criterion not met

---

Test: NCI Yeast Anticancer Drug Screen. Data for the rad50 strain (AID 155);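 also: 0% = growth of vehicle-only cultures of the same strain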
Conditions: S. cerevisiae rad50 strain growth inhibition; at 50.0 µM
Compounds without any hit were thinned out: in the full panel of roughly 79,000, 15% have a hit. The source made the active and inactive calls. No stated cut-off is given here; in the data, active means growth inhibition above about 70%; inactive means the rest.
Output constraint: value belongs to 1.0 (active), 0.0 (inactive)

# example entries with known answers
CN(C)CCc1ccc(Cl)cc1Cl : 0.0
O=CNNC(=O)C(Cl)Cl : 0.0
Cc1nn[n-]n1.N.N.N.N.N.[Cl-].[Co+3] : 0.0
COc1cc(OC)cc(C(=O)Cc2c(C(=O)c3ccccc3)c3ccccc3n2C(=O)c2ccccc2)c1 : 0.0

# ---- query molecule ----
Hi, do you know how "NC(N)=Nc1c(N)ncnc1N" came out in this test?
0.0

---

Test: NCI Yeast Anticancer Drug Screen. Data for the bub3 strain (AID 167)
Conditions: S. cerevisiae bub3 mutant strain, at 50.0 µM, hits give high values
The panel holds about 79,000 compounds, 15% with a hit somewhere; the sample as a whole holds those more often.
MEASURED_PARAMETER: growth inhibition (%)
Give bare numbers, in %.

O=[As]c1cccc2ccccc12 (stereo not given) : 99.3
CN1CCCC(OC(=O)C(c2ccccc2)C2(O)CCCC2)C1 (stereo not given) : -1.85
CCN1CN(c2ccccc2)C2(CCN(CC(CC3OCCO3)c3ccc(F)cc3)CC2)C1=O (stereo not given) : 47
CC(=O)NC(Cc1ccc(N(CCCl)CCCl)cc1)C(=O)NC(CC(C)C)C(=O)O (stereo not given) : 2.7

Please turn your attention to the following entry.
Look at this compound and give its reported growth inhibition. "CN(C=O)C(=S)[S][Sb]([S]C(=S)N(C)C=O)[S]c1nc2ccc(N=Nc3ccc(NS(=O)(=O)c4ccc(NC(=O)C(N5CC5)(N5CC5)N5CC5)cc4)cc3)cc2s1"
99.2

---

Assay: NCI Yeast Anticancer Drug Screen. Data for the bub3 strain (AID 167)
Conditions: S. cerevisiae bub3 mutant strain, at 50.0 µM
The panel holds about 79,000 compounds, 15% with a hit somewhere; the sample as a whole holds those more often. Activity calls are given as the source filed them. Rule as the data show it: active = growth inhibition above about 70%; inactive = the rest.
Output constraint: value belongs to 1 = active, 0 = inactive

# example entries with known answers
C[As](C)SCCC(N)C(=O)NC(CCS[As](C)C)C(=O)O (stereo unspecified) : 1
CCCCCCCCCCCCC(=O)O.[Pb] : 0
O=CC(O)C(O)C1[O][Sb][O]C1CO (stereo unspecified) : 0
NC(C(=O)[O-])C(=O)[O-].NC1CCCCC1N.[Pt+4] : 0
CC(Br)C(=O)NC(C)C(=O)O (stereo unspecified) : 0

# ---- query compound ----
Hi, do you know how "ClCCN(CCCl)c1ccc(/C=N/N2CCN(/N=C/c3ccc(N(CCCl)CCCl)cc3)CC2)cc1" came out in this test?
0

---

Assay: NCI Yeast Anticancer Drug Screen. Data for the bub3 strain (AID 167)
Settings: S. cerevisiae bub3 mutant strain, at 50.0 µM
About 79,000 compounds went through this panel and 15% of them were active in at least one assay; those are over-represented in the sample as a whole. Calls of active or inactive are those of the source. Rule as the data show it: active = growth inhibition above about 70%; inactive = the rest.
Output constraint: value belongs to true (1) for active, false (0) for inactive

O=C1NC(=S)NC(=O)C1=CC1CC1 : false (0)
ClCc1cccc2ccccc12 : false (0)
CNC(=O)c1cc(N(CCCl)CCCl)c([N+](=O)[O-])cc1[N+](=O)[O-] : false (0)

Hi, do you know how "NC[CH2][Sn]([c]1ccccc1)([CH]1CCCCC1)[CH]1CCCCC1" came out in this test?
true (1)

// repeat for "COc1ccc([C@H]2N[C@@H]2c2ccccn2)cc1" and report
false (0)

// repeat for "CCCCCCCCCC(=O)[O][Hg][c]1ccccc1" and report
true (1)

---

Assay: NCI Yeast Anticancer Drug Screen. Data for the rad50 strain (AID 155);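 also: 0% = growth of vehicle-only cultures of the same strain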
Conditions: S. cerevisiae rad50 strain growth inhibition; at 50.0 µM; hits give high values
The panel holds about 79,000 compounds, 15% with a hit somewhere; the sample as a whole holds those more often.
MEASURED_PARAMETER: growth inhibition (%)
Answers are plain numbers, in %.

Field: example entries. Status: answers known.
Nc1nc(N)c2cnnn2n1 : 18.1
CN1CCCC2(CCCc3ccccc32)C1 (stereo not drawn) : 14.2
[Cl][Hg][c]1ccc2ccccc2c1 : 85.8

Working through the 4 molecules below one at a time, give growth inhibition for each.
1. CCN(CC)CC(=O)c1ccccc1
2. CC1(C)CC2(c3ccccc3)CC(c3ccccc3)C1C(C(=O)O)C2C(=O)O (stereo not drawn)
3. CCOP(O)(=S)OCC.[Yb]
4. [O]=[Sb]([OH])([OH])[c]1ccc(NC2OC(CO)C(O)C(O)C2O)cc1 (stereo not drawn)

1. -24.1
2. 99.2
3. 22.4
4. 6.45

---

Test: NCI Yeast Anticancer Drug Screen. Data for the rad50 strain (AID 155);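 also: 0% = growth of vehicle-only cultures of the same strain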
Details: S. cerevisiae rad50 strain growth inhibition; at 50.0 µM
The panel holds about 79,000 compounds, 15% with a hit somewhere; the sample as a whole holds those more often. Active and inactive are the calls of the source. Cut-off read from the data, not from the text of the source: active = growth inhibition above about 70%; inactive = the rest.
Output constraint: value belongs to yes for active, no for inactive

# example entries with known answers
NC(=O)c1cc([N+](=O)[O-])cc([N+](=O)[O-])c1 : no
O=c1[nH]cc(N=Cc2ccccc2Cl)c(=O)[nH]1.[Cl][Pt][Cl] : no
N.N.N.O=N[O-].O=N[O-].O=N[O-].[Co+3] : no
Nc1ccccc1Nc1ccccc1C(=O)[O-].Nc1ccccc1Nc1ccccc1C(=O)[O-].[Zn+2] : no
CO[C](=[W])c1ccccc1.[C-]#[O+].[C-]#[O+].[C-]#[O+].[C-]#[O+].[C-]#[O+] : no
CCN(CC)CC(=O)c1cc2ccccc2c2ccccc12 : yes

Hi, do you know how "CCCC(=O)O.CCCC(=O)O.CCCC(=O)O.CCCC(=O)O.[Rh].[Rh]" came out in this test?
no

// repeat for C1=[N+]2CCCC2Cc2ccc3ccccc3c21 (configuration not stated) and report
no

// repeat for "NC(=NCc1ccccc1)N[N+](=O)[O-]" and report
no

// repeat for "CCC(C)(C)OC(=O)CCl" and report
no

// repeat for "CCOS(=O)(=O)OCC" and report
no

// repeat for CCCCOCN(COCCCC)C(C)Cc1ccccc1 (configuration not stated) and report
no
